Numbers sourced from paper PMC7226027.

- system_name: hAPN (recombinant human alanine aminopeptidase, EC 3.4.11.2) (Homo sapiens, UniProt P15144)
- Construct: gene ANPEP; commercial recombinant enzyme (R&D Systems), lyophilized powder
- Sequence (P15144 33-967 limits assumed): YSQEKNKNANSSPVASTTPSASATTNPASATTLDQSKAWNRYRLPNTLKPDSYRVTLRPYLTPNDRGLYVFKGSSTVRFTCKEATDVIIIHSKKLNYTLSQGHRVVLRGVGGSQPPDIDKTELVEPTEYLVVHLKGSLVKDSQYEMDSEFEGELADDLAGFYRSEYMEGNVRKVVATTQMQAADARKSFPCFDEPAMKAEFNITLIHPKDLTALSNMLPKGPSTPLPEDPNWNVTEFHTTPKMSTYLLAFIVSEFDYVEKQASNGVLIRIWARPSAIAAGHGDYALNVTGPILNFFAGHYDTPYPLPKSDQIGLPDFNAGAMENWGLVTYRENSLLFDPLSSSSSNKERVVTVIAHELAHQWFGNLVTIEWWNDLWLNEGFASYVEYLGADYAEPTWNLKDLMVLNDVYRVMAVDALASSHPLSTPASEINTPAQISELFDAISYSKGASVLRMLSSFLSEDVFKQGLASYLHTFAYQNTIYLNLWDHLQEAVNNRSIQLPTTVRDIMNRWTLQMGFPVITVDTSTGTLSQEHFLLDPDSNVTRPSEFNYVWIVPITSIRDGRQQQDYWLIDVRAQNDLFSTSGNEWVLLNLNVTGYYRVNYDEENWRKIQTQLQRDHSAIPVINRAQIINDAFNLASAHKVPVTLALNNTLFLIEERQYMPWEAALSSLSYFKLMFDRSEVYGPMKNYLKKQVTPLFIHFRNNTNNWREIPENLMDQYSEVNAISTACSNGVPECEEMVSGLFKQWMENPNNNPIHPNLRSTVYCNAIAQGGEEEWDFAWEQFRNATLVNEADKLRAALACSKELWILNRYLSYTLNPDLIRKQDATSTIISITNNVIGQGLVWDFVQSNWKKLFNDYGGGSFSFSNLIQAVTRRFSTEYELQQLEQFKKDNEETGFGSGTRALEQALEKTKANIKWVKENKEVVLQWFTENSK
- test_name: fluorogenic assay, Ala-AMC hydrolysis; Ki by Lineweaver-Burk, Dixon, Cheng-Prusoff
- Type: biochemical
- setup_conditions: read-out: hAPN Ki
// assign MET if Ki falls strictly below 20 µM, else NOT MET (ties count as NOT MET)

| molecule | label |
| --- | --- |
| NC(Cc1cc(F)c(F)cc1F)P(=O)(O)O (racemic) [1j] | MET |
| NC(Cc1cc(Cl)ccc1F)P(=O)(O)O (racemic) [1p] | MET |
| NC(Cc1cc(F)cc(F)c1)P(=O)(O)O (racemic) [1i] | MET |
| NC(Cc1cccc(C(F)(F)F)c1)P(=O)(O)O (racemic) [1w] | MET |
| NC(Cc1ccc(F)c(Cl)c1)P(=O)(O)O (racemic) [1t] | MET |
| NC(Cc1ccc(C(F)(F)F)cc1)P(=O)(O)O (racemic) [1x] | NOT MET |

Does the reported Ki of the following molecule sit strictly below 20 µM? NC(Cc1ccc(F)c(C(F)(F)F)c1)P(=O)(O)O (racemic) [1z] MET

Does the reported Ki of the following molecule sit strictly below 20 µM? NC(Cc1ccc(F)c(F)c1)P(=O)(O)O (racemic) [1h] MET

Does the reported Ki of the following molecule sit strictly below 20 µM? NC(Cc1cc(F)ccc1F)P(=O)(O)O (racemic) [1f] NOT MET

Does the reported Ki of the following molecule sit strictly below 20 µM? NC(Cc1cccc(Cl)c1F)P(=O)(O)O (racemic) [1n] MET

Does the reported Ki of the following molecule sit strictly below 20 µM? NC(Cc1c(F)cc(F)cc1F)P(=O)(O)O (racemic) [1k] NOT MET

Does the reported Ki of the following molecule sit strictly below 20 µM? NC(Cc1ccc(F)cc1Cl)P(=O)(O)O (racemic) [1u] NOT MET

Does the reported Ki of the following molecule sit strictly below 20 µM? NC(Cc1ccc(Cl)cc1F)P(=O)(O)O (racemic) [1o] MET

###

- system_name: hAPN (recombinant human alanine aminopeptidase, EC 3.4.11.2) (Homo sapiens, UniProt P15144)
- Construct: gene ANPEP; commercial recombinant enzyme (R&D Systems), lyophilized powder
- test_name: fluorogenic assay, Ala-AMC hydrolysis; Ki by Lineweaver-Burk, Dixon, Cheng-Prusoff
- Type: biochemical
- setup_conditions: read-out: Inactive (no inhibition up to 1 mM)
attribute_measured: Ki

| compound | attribute_measured | reported_result |
| --- | --- | --- |
| NC(Cc1cc(F)ccc1C(F)(F)F)P(=O)(O)O (racemic) | Ki | > 1000 µM |

Shift focus to the following entry.
What value of measured Ki is listed for NC(Cc1ccccc1C(F)(F)F)P(=O)(O)O (racemic) ? > 1000 µM

###

- system_name: pAPN (porcine kidney alanine aminopeptidase, EC 3.4.11.2) (Sus scrofa)
- Construct: gene ANPEP; commercial enzyme from porcine kidney (Sigma Aldrich), native purification, lyophilized powder
- Sequence (P15145 2-963): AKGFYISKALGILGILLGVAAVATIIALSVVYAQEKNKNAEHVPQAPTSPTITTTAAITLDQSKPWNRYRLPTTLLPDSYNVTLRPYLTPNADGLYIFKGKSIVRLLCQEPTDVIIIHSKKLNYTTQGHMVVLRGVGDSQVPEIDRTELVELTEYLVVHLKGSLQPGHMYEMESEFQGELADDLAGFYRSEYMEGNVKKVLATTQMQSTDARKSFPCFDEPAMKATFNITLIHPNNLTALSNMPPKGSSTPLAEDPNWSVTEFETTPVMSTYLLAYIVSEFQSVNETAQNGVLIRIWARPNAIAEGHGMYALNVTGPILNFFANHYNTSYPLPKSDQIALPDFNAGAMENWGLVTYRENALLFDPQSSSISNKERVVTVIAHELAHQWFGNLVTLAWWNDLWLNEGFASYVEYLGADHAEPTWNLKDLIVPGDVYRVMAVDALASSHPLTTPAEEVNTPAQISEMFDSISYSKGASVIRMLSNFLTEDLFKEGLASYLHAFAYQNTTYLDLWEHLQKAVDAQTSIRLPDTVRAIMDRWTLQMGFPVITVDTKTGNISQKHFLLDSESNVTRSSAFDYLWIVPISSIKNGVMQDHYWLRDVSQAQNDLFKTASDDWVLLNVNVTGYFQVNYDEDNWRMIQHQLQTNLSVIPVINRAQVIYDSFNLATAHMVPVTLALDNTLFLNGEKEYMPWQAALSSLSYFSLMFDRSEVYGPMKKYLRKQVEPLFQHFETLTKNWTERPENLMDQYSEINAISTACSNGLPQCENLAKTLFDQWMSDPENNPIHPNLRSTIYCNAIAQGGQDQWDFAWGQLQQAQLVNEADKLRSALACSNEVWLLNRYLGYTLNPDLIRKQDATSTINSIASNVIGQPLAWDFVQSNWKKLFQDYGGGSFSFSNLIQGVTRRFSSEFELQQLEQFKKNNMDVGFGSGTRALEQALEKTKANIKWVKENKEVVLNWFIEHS
- test_name: fluorogenic assay, Ala-AMC hydrolysis; Ki by Lineweaver-Burk, Dixon, Cheng-Prusoff
- Assay type: biochemical
Each record here notes measured Ki.
Response body: numeric value in µM, unit text excluded.

| compound | attribute_measured | reported_result |
| --- | --- | --- |
| NC(Cc1ccc(F)c(F)c1)P(=O)(O)O (racemic) [1h] | Ki | 15.7 |

What value of measured Ki is listed for NC(Cc1cc(F)cc(F)c1)P(=O)(O)O (racemic) [1i] ? 8.09

What value of measured Ki is listed for NC(Cc1ccc(Cl)cc1F)P(=O)(O)O (racemic) [1o] ? 160

What value of measured Ki is listed for NC(Cc1c(F)c(F)c(F)c(F)c1F)P(=O)(O)O (racemic) [1m] ? 808

What value of measured Ki is listed for NC(Cc1c(F)cccc1F)P(=O)(O)O (racemic) [1g] ? 725

What value of measured Ki is listed for NC(Cc1ccc(F)cc1Cl)P(=O)(O)O (racemic) [1u] ? 106
